# credit: paper PMC11532403

Assay: Tissue distribution in rats
Assay type: in vivo
Conditions: both sexes, rat, stomach, po; 20 mg/kg gavage; read-out: Stomach exposure (AUC0~24h)

Smiles Code | Kp
COc1ccc(CN2C3CC2CN(c2ccc(-c4cc(N5CC(C)(O)C5)cn5ncc(C#N)c45)cn2)C3)cn1 | 2.02

---

Assay: Phase 1 trial: plasma pharmacokinetics
Assay type: in vivo
Conditions: human, 20 mg, Cycle 1 Day 1, 20 mg QD (n = 1), read-out: AUC0–12 h mean
Measure: AUC(0-t) (ng·h/mL)

Compound | Measurement Units | Reported Result
COc1ccc(CN2C3CC2CN(c2ccc(-c4cc(N5CC(C)(O)C5)cn5ncc(C#N)c45)cn2)C3)cn1 [SY-5007] | ng·h/mL | 2230
